Cited source: paper PMC6522912

target: E. coli MurD (Escherichia coli); assay: biochemical; conditions: 0.25 h, Table S1, PKIS screening; read-out: RA [%] at 100 µM MurD
Sequence (P14900 whole entry): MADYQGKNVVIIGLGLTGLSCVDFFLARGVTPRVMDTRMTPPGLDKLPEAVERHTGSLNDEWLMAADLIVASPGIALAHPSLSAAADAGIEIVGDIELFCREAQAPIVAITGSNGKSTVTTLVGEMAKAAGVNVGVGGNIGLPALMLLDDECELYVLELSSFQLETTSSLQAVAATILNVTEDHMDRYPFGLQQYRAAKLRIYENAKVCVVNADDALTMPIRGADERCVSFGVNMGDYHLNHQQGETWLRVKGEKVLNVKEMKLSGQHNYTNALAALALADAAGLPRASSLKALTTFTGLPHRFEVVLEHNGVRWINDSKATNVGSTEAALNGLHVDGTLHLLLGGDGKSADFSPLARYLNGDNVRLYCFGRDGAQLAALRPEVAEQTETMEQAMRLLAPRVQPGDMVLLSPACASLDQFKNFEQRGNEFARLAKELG
Measured remaining activity at 100 µM by item
Reply with just the number (in %).

Guide cases for remaining activity at 100 µM, answers given:
CCc1cccc(NC(=O)Nc2ccc(Oc3ccc4nc(NC(=O)OC)[nH]c4c3)cc2)c1 [GW673715X] : 83
Nc1nccc(-c2c(-c3ccc(F)cc3)nn3cc(C(F)(F)F)ccc23)n1 [GW568326X] : 90
NS(=O)(=O)c1cccc(-c2cc3ccncc3cc2OCc2ccccc2)c1 [GSK980961A] : 86
O=C(Nc1ccc(Oc2ccc3nc(NC(=O)c4ccccc4)[nH]c3c2)cc1)Nc1cc(C(F)(F)F)ccc1F [GW709042A] : 95
COc1cc(N2CCN(C(C)C)CC2)ccc1Nc1nc(Nc2ccc(F)cc2C(N)=O)c2cc[nH]c2n1 [GSK1220512A] : 48

Form field: reported remaining activity at 100 µM of COc1ccc2ncn(-c3cc(O[C@H](C)c4ccccc4C(F)(F)F)c(C(N)=O)s3)c2c1 [GSK317315A]
47

Next: "N#Cc1ccc(Oc2nccc(-c3c(-c4ccc(F)cc4)ncn3C3CCNCC3)n2)cc1"
27

Now the same for CC(C)COC(=O)c1ccc2c(c1)/C(=C/Nc1ccc(S(N)(=O)=O)cc1)C(=O)N2 [GW416981X]
100
